Target: crosslinked smooth muscle actomyosin (chicken gizzard smooth muscle myosin subfragment-1 crosslinked to cardiac or skeletal actin) (Gallus gallus)
Note: every record was labeled by where its IC50 sits among bottom range: < 900 nM; center range: ≥ 900 nM and < 5000 nM; top range: ≥ 5000 nM

- MOLECULE: "O=C(Nc1ccc(Cl)cc1)OCC1(C(=O)NCc2ccccc2Cl)CCOCC1"
  QUALITATIVE LABEL: "center range"
- MOLECULE: "CCc1ccc(NC(=O)OCC2(C(=O)NCc3ccccc3Cl)CCC2)cc1"
  QUALITATIVE LABEL: "center range"
- MOLECULE: "Cc1ccc(NC(=O)OCC2(C(=O)NCc3ccccc3Cl)CCOCC2)cc1F"
  QUALITATIVE LABEL: "center range"
- MOLECULE: "CCc1ccc(NC(=O)OCCN(CCCCNC(=O)CN)C(=O)NCc2ccccc2Cl)cc1"
  QUALITATIVE LABEL: "bottom range"
- MOLECULE: "CCc1ccc(NC(=O)OCC2(C(=O)NCc3ccc(C)cc3C)CCN(C(=O)CN)CC2)cc1"
  QUALITATIVE LABEL: "bottom range"
- MOLECULE: "CCc1ccc(NC(=O)OCC2(C(=O)NCc3ccccc3Cl)CCN(CC)CC2)cc1"
  QUALITATIVE LABEL: "top range"
- MOLECULE: "CCc1ccc(CC(=O)NCC2(C(=O)NCc3ccccc3Cl)CCN(C(=O)CN)CC2)cc1"
  QUALITATIVE LABEL: "top range"
- MOLECULE: "Cc1cccc(F)c1NC(=O)OCC1(C(=O)NCc2ccccc2Cl)CCOCC1"
  QUALITATIVE LABEL: "top range"
- MOLECULE: "CCc1ccc(NC(=O)O[C@@H]2CCCN(C(=O)NCc3ccccc3Cl)C2)cc1"
  QUALITATIVE LABEL: "center range"
- MOLECULE: "CCc1ccc(NC(=O)OCCN(CCNC)C(=O)NCc2ccccc2Cl)cc1"
  QUALITATIVE LABEL: "top range"
- MOLECULE: "Cc1ccc(NC(=O)OCC2(C(=O)NCc3ccccc3Cl)CCN(C(=O)CN)CC2)cc1"
  QUALITATIVE LABEL: "bottom range"
- MOLECULE: "CCc1ccc(NC(=O)NCC2CCCN2C(=O)NCc2ccccc2Cl)cc1 (stereo not shown)"
  QUALITATIVE LABEL: "center range"
- MOLECULE: "CCc1ccc(NC(=O)NCC2(C(=O)NCc3ccccc3Cl)CC2)cc1"
  QUALITATIVE LABEL: "top range"
- MOLECULE: "CCc1ccc(NC(=O)NC2(C(=O)NCc3ccccc3Cl)CCN(C(=O)OC)C2)cc1 (stereo not shown)"
  QUALITATIVE LABEL: "top range"
- MOLECULE: "CCc1ccc(NC(=O)OCCN(CCCCN)C(=O)NCc2ccccc2Cl)cc1"
  QUALITATIVE LABEL: "bottom range"
- MOLECULE: "CCc1ccc(NC(=O)OC[C@@H]2C[C@@H](NC(C)=O)CN2C(=O)NCc2ccccc2Cl)cc1"
  QUALITATIVE LABEL: "center range"
- MOLECULE: "CCc1ccc(NC(=O)OCC2(C(=O)NCc3ccccc3Cl)CCN(C(=O)C(O)CCN)CC2)cc1 (stereo not shown)"
  QUALITATIVE LABEL: "bottom range"
- MOLECULE: "NCC(=O)N1CCC(COC(=O)Nc2ccc(C(F)(F)F)cc2)(C(=O)NCc2ccccc2Cl)CC1"
  QUALITATIVE LABEL: "bottom range"
- MOLECULE: "CCc1ccc(NC(=O)OCC2(C(=O)NCc3ccccc3Cl)CCCN(C(=O)[C@@H](N)CO)C2)cc1 (stereo partly shown)"
  QUALITATIVE LABEL: "center range"
- MOLECULE: "CCc1ccc(NC(=O)OC[C@@H](C)N(C)C(=O)NCc2ccccc2Cl)cc1"
  QUALITATIVE LABEL: "top range"
- MOLECULE: "CCc1ccc(NC(=O)N(CCNC(=O)OC(C)(C)C)CC2(C(=O)NCc3ccccc3Cl)CCN(C(=O)CNC(=O)OC(C)(C)C)CC2)cc1"
  QUALITATIVE LABEL: "top range"
- MOLECULE: "CCc1ccc(NC(=O)OCC2(C(=O)NCc3ccccc3Cl)CCCN(C(=O)CN)C2)cc1 (stereo not shown)"
  QUALITATIVE LABEL: "bottom range"
- MOLECULE: "CCc1ccc(NC(=O)OCC2(C(=O)NCc3ccccc3Cl)CCN(C(=O)C(N)CCCN)CC2)cc1 (stereo not shown)"
  QUALITATIVE LABEL: "center range"
- MOLECULE: "CCc1ccc(NC(=O)OCC2(C(=O)NCc3ccccc3Cl)CCN(C(=O)[C@H](C)NC(=O)OC(C)(C)C)CC2)cc1"
  QUALITATIVE LABEL: "center range"
- MOLECULE: "CCc1ccc(NC(=O)OCC2(C(=O)NCc3ccccc3Cl)CCN(C(=O)[C@@H](N)CO)CC2)cc1"
  QUALITATIVE LABEL: "bottom range"
- MOLECULE: "CCc1ccc(NC(=O)OCC2(C(=O)NCc3ccccc3Cl)CCN(C(=O)C3CCN3C(=O)OC(C)(C)C)CC2)cc1 (stereo not shown)"
  QUALITATIVE LABEL: "center range"
- MOLECULE: "CCc1ccc(NC(=O)OCC2(C(=O)NCc3cccc(Cl)c3F)CCN(C(=O)CN)CC2)cc1"
  QUALITATIVE LABEL: "bottom range"
- MOLECULE: "CCc1ccc(NC(=O)OCC2(C(=O)NCc3ccccc3Cl)CCN(C(=O)C(O)CO)CC2)cc1 (stereo not shown)"
  QUALITATIVE LABEL: "bottom range"
- MOLECULE: "CCc1ccc(NC(=O)OCC2(C(=O)NCc3ccc(Cl)cc3)CCN(C(=O)CNC(=O)OC(C)(C)C)CC2)cc1"
  QUALITATIVE LABEL: "top range"
- MOLECULE: "CCc1ccc(NC(=O)OCC2(C(=O)NCc3ccccc3Cl)CCN(C(=O)C(C)(CO)CO)CC2)cc1"
  QUALITATIVE LABEL: "bottom range"
- MOLECULE: "CCc1ccc(NC(=O)OCC(C)(NC(=O)[C@@H](N)CO)C(=O)NCc2ccccc2Cl)cc1 (stereo partly shown)"
  QUALITATIVE LABEL: "top range"
- MOLECULE: "CCc1ccc(NC(=O)OCCC(N)C(=O)NCc2ccccc2Cl)cc1 (stereo not shown)"
  QUALITATIVE LABEL: "top range"
- MOLECULE: "CCc1ccc(NC(=O)OCC2(C(=O)NCc3ncc[nH]3)CCN(C(=O)CNC(=O)OC(C)(C)C)CC2)cc1"
  QUALITATIVE LABEL: "center range"
- MOLECULE: "CCc1ccc(NC(=O)OCC2(C(=O)NCc3ccc(Cl)cc3)CCN(C(=O)CN)CC2)cc1"
  QUALITATIVE LABEL: "center range"
- MOLECULE: "CCc1ccc(NC(=O)OCC2(C(=O)NCc3ccccc3F)CCN(C(=O)CN)CC2)cc1"
  QUALITATIVE LABEL: "bottom range"

###

Catalogue of IC50 values
Target: crosslinked smooth muscle actomyosin (chicken gizzard smooth muscle myosin subfragment-1 crosslinked to cardiac or skeletal actin) (Gallus gallus, UniProt P10587)
QUANTITY KIND: IC50 (nM)

- MOLECULE: "NCC(=O)N1CCC(COC(=O)Nc2ccc(C(F)(F)F)cc2Cl)(C(=O)NCc2ccccc2Cl)CC1"
  RESULT NUMBER: 440
- MOLECULE: "CCc1ccc(NC(=O)OCC2(C(=O)NCc3ccccc3Cl)CC=CC2)cc1"
  RESULT NUMBER: 1360
- MOLECULE: "CCc1ccc(NC(=O)OCC2(C(=O)NCc3cccc(Cl)c3Cl)CCN(C(=O)CNC(=O)OC(C)(C)C)CC2)cc1"
  RESULT NUMBER: 313
- MOLECULE: "CN(CCOC(=O)Nc1ccc2ncccc2c1)C(=O)NCc1ccccc1Cl"
  RESULT NUMBER: 1410
- MOLECULE: "CCc1ccc(NC(=O)OCC2(C(=O)NCc3ccccc3Cl)CCN(C(=O)[C@@H](C)N)CC2)cc1"
  RESULT NUMBER: 255
- MOLECULE: "CCc1ccc(NC(=O)OCC2(C(=O)NCc3ccccc3Cl)CCN(C(=O)C(N)CC#N)CC2)cc1 (stereo not drawn)"
  RESULT NUMBER: 797
- MOLECULE: "CCc1ccc(NC(=O)OCC2(C(=O)NCc3ccc(Cl)cc3C)CCN(C(=O)CN)CC2)cc1"
  RESULT NUMBER: 145
- MOLECULE: "CCc1ccc(NC(=O)OCC2(C(=O)NCc3cccc(F)c3F)CCN(C(=O)CNC(=O)OC(C)(C)C)CC2)cc1"
  RESULT NUMBER: 1590
- MOLECULE: "CCc1ccc(NC(=O)OCC2(C(=O)NCc3ccccc3Cl)CCN(C(=O)CN)CC2)cc1"
  RESULT NUMBER: 175
